Provide the recorded pKd for the entries that follow.
target_or_system: T1, cynomolgus BTLA (analyte of Bio-Layer Interferometry) (cynomolgus, UniProt A0A2K5W7M7 31-157)
T1 construct: also called Cyno BTLA
T1 sequence (A0A2K5W7M7 entry or part of it): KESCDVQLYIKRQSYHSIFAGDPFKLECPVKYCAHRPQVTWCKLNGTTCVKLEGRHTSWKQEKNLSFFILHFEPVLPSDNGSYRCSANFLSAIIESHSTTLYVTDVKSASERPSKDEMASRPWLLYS
measurement_protocol: Bio-Layer Interferometry (Octet), antibody captured by anti-human-Fc (AHC), BTLA in solution, 1:1 fit
Give bare numbers, as −log10 of the molar value.

anti-BTLA antibody 16-I20A (antibody, V domains shown, also called 16420A) VH: QVQLQESGPGLVKPSETLSLTCTVSGGSISYYYWSWIRQPPGTGLEWIGYIYYSGSTKYNPSLKRRVTISVDTSKNQFSLKLSSVTAADTAVYYCARIRGDSYGWDFDYWGQGTLVTVSS VL: EIVMTQSPATLSLSPGERATLSCRASQSISNNYLFWYQQKPGQAPRLLIYGASTRATGIPARFSGSGSGTDFTLTISSLQPEDFAVYYCQQDYNFPLTFGGGTKVEIK | 7.78

Parameter requested: pKd. Apply to each item below.
1. anti-BTLA antibody 13-F7A (antibody, V domains shown) VH: EVQLLESGGGLVQPGGSLRLSCAASGFTSSSYGMSWVRQAPGKGLEWVSGISGSGGGTYYADSVKGRFTISRDNSKNTLYLQMNSLRAEDTAVYYCAKGDYYGSGSYPLFDYWGQGTLVTVSS VL: AIQLTQSPSSLSASVGDRVTITCRASQDISSALAWYQQKPGKAPKLLISDASSLESGVPSRFSGSGSGTDFTLTISSLQPEDFATFYCQQFNNYPPTFGPGTKVDIK
2. anti-BTLA antibody 12-I8A (antibody, V domains shown, also called 12-IBA) VH: QVQLVESGGGVVQPGRSLRLSCAASGFTFSNYGMHWVRQAPGKGLEWVAVIWYNGSNKYYADSVKGRFTISRDNSKNTLYLQMNSLRAEDTAVYYCARDDVVRYFDWPLDYWGQGTLVTVSS VL: AIQMTQSPSSLSASVGDRVTITCRASQGIRNDLGWYQQKPGKAPKVLIYAASSLQSGVPSRFSGSGSGTDFTLTISSLQPEDFATYYCLQDYNYPWTFGQGTKVEIK
3. anti-BTLA antibody 16-H16A (antibody, V domains shown) VH: QLQLQESGPGLVKPSETLSLTCTVSGDSISSSGYYWGWIRQPPGKGLEWIGSIYYSGSTHYNPSLKSRVTISVDSSKSQFSLKLSSVTAADTAVYCCARHKVDSSGWPLDYWGQGTLVTVSS VL: EIVMTQSPATLSLSPGERATLSCRASQSISSSCLSWYQQKPGQAPRLLIYDTSTRATGIPARFSGSGSGTDFTLTISSLQPEDFAVYYCQQDYNLPLTFGGGTKVEIK

## Output
[8.41, 7.63, 8.39]
